- Test system: K562
- method.summary: NCI tumour cell line growth inhibition, 48 h
Activity calls are given as the source filed them. No stated cut-off is given here; in the data, active = GI50 up to about 1.1 µM and inactive = higher.
Your answer must be one of the following: label 1 for active, label 0 for inactive

Query string: Look up the recorded call for NC(CCCC(N)P(=O)(O)c1ccccc1)P(=O)(O)c1ccccc1 (stereo unspecified) in this test.
Result string: label 0

Query string: Look up the recorded call for N#CC12C(=O)N3C(=NC(c4ccccc4)NC3c3ccccc3)C1(C#N)C(c1ccccc1)NC1=C2CCC1 (stereo unspecified) in this test.
Result string: label 0

Query string: Look up the recorded call for O=C1NC2C(=CC(O)C(O)C2O)c2cc3c(cc21)OCO3 (stereo unspecified) in this test.
Result string: label 1

Query string: Look up the recorded call for CC/C=C/C[C@H](O[Si](C)(C)C(C)(C)C)[C@H]1C[C@H]2O[C@H]([C@@H](O)C#C[Si](C)(C)C)C[C@H]2O1 in this test.
Result string: label 0

Query string: Look up the recorded call for O=C1C(=O)C2(CC1S(=O)(=O)c1ccccc1)c1ccccc1-c1ccccc12 (stereo unspecified) in this test.
Result string: label 0

Query string: Look up the recorded call for Cc1ccc2oc(=O)c(-c3ccccc3)nc2c1 in this test.
Result string: label 0

Query string: Look up the recorded call for Nc1cc(O)nc(SC2=NC(N)CC(O)C2)n1 (stereo unspecified) in this test.
Result string: label 0

Query string: Look up the recorded call for CC1=N/C(=C/c2ccc3c(c2)OCO3)C(=O)O1 in this test.
Result string: label 0

Query string: Look up the recorded call for CC1=CCC2CC1C(C(=O)c1c[nH]c3ccccc13)=NC2(C)C (stereo unspecified) in this test.
Result string: label 0

Query string: Look up the recorded call for O=C1NC(=O)C(C(=O)C(=O)Nc2cc(Cl)ccc2Cl)C(=O)N1 in this test.
Result string: label 0

Query string: Look up the recorded call for NC(=O)C(=O)N/N=C(\CC1(O)C(=O)Nc2ccccc21)c1ccc2ccccc2c1 (stereo unspecified) in this test.
Result string: label 0

###

- Tested on: HCC 2998
- method.summary: NCI tumour cell line growth inhibition, 48 h
The source made the active and inactive calls. Cut-off read from the data, not from the text of the source: active = GI50 up to about 1.1 µM and inactive = higher.
// reported GI50 per item

Answered cases to consult:
• Cc1c(Cl)c(S(N)(=O)=O)cc(S(N)(=O)=O)c1NC(=O)c1ccc(Cl)cc1 = > 100 µM (inactive)
• CSc1c(C#N)c(N)n(-c2ccc(C)cc2)c(=O)c1C#N = > 100 µM (inactive)
• OC1CN=C2c3ccccc3C(O)(c3ccc(Cl)cc3)N2C1 (stereo not given) = 17.1 µM (inactive)

Looking up O=C(/C=C/c1ccccc1)Oc1cccc(O)c1 , I found its GI50 recorded as > 100 µM (inactive)

Looking up O=C(O[C@H](/C=C/c1ccccc1)P1(=O)N(Cc2ccccc2)[C@H]2CCCC[C@@H]2N1Cc1ccccc1)c1ccccc1 , I found its GI50 recorded as 8.18 µM (inactive)

Looking up CC(=O)Nc1ccc(S(=O)(=O)N=S(C)C)cc1 , I found its GI50 recorded as > 100 µM (inactive)

Looking up CCOC(=O)/C=C1\Oc2ccccc2C1(C)O (stereo not given) , I found its GI50 recorded as > 100 µM (inactive)

Looking up O=P(c1ccccc1)(c1ccccc1)C(NCc1ccccc1)c1ccc(F)cc1 (stereo not given) , I found its GI50 recorded as 16.1 µM (inactive)

Looking up CC1CCC(=O)C(C(O)CC2CC(=O)N(c3ccccc3)C(=O)C2)C1 (stereo not given) , I found its GI50 recorded as > 100 µM (inactive)

Looking up Oc1ccc2ccccc2c1OCc1nnc(CCCCCCCCc2nnc(COc3c(O)ccc4ccccc34)o2)o1 , I found its GI50 recorded as > 100 µM (inactive)

###

- System: OVCAR-3
- method.summary: NCI tumour cell line growth inhibition, 48 h
Active and inactive are the calls of the source. No stated cut-off is given here; in the data, active = GI50 up to about 1.1 µM and inactive = higher.
Your answer must be one of the following: active, inactive

Below are worked cases with known answers.
• COC(=O)Cc1cc(=O)oc2c1C(=O)CCC2 = inactive
• CC1=N/C(=C/c2ccc3c(c2)OCO3)C(=O)O1 = inactive
• CCCN1C(=O)CCC2=C1CCc1c2ccc(Cl)c1Cl = inactive
• Nc1n[nH]c2c(C(=O)Nc3ccc(Cl)cc3)c(N)n(N)c(=O)c12 = inactive
• CC1CCC(=O)C(C(O)CC2CC(=O)N(c3ccccc3)C(=O)C2)C1 (stereo unspecified) = inactive
• CCCN(CCCN)/[N+]([O-])=N\O = inactive
• CCn1c(SCC(=O)N/N=C/c2ccccc2)nc2ccccc2c1=O = inactive
• COC(=O)C(/C(=N/N)C(=O)Nc1cc(Cl)ccc1Cl)c1nc2ccc([N+](=O)[O-])cc2nc1O (stereo unspecified) = inactive
• CSCCC(NC(=O)OCc1ccccc1)NC(=O)OCc1ccccc1 = inactive
• Cc1c(Cl)c(S(N)(=O)=O)cc(S(N)(=O)=O)c1NC(=O)c1ccc(Cl)cc1 = inactive

Query string: Look up the recorded call for CC12CCC3C(CCC4=CC(O)CCC43C=O)C1(O)CCC2c1ccc(=O)oc1 (stereo unspecified) in this test.
Result string: active

Query string: Look up the recorded call for CC(=O)C(=CNc1c(C)n(C)n(-c2ccccc2)c1=O)C(C)=O in this test.
Result string: inactive

Query string: Look up the recorded call for CC1C2CC(C(C3C(=O)C4CC3C(C)(C)C4C)C2=O)C1(C)C (stereo unspecified) in this test.
Result string: inactive

Query string: Look up the recorded call for CC/C=C(\C(=C/CC)[N+](=O)[O-])[N+](=O)[O-] in this test.
Result string: inactive

Query string: Look up the recorded call for COC(=O)C#CC(N)=O in this test.
Result string: inactive

Query string: Look up the recorded call for COC(=O)C1C(=O)O[C@@H](c2ccc(OC)cc2OC)C1C(=O)OC (stereo partly specified) in this test.
Result string: inactive

Query string: Look up the recorded call for CC(=O)N1C2=CCCC2(C)c2ccccc21 (stereo unspecified) in this test.
Result string: inactive

Query string: Look up the recorded call for CC(=O)N(C)SCC(NC(=O)C(Cc1ccccc1)NC(=O)OCc1ccccc1)C(=O)NC(Cc1ccccc1)C(=O)NC(Cc1cn(C=O)c2ccccc12)C(=O)NC(CCCCNC(=O)OCc1ccccc1)C(=O)NC(C(=O)NC(CSN(C)C(C)=O)C(=O)NO)C(C)OCc1ccccc1 (stereo unspecified) in this test.
Result string: inactive

Query string: Look up the recorded call for COc1cc(NCc2ccc3oc(=O)c(-c4ccccc4)nc3c2)cc(OC)c1OC in this test.
Result string: inactive

Query string: Look up the recorded call for O=C(O)c1cc(/N=N/c2ccc([N+](=O)[O-])cc2)ccc1O in this test.
Result string: inactive

Query string: Look up the recorded call for CCCc1[nH]c(SCCCCCCCCSc2nc(-c3ccc(F)cc3)c(CCC)[nH]2)nc1-c1ccc(F)cc1 in this test.
Result string: inactive

###

- System: UACC-257
- method.summary: NCI tumour cell line growth inhibition, 48 h
The source made the active and inactive calls. No stated cut-off is given here; in the data, active = GI50 up to about 1.1 µM and inactive = higher.
readout.name: GI50

Answered cases to consult:
• CC1=C(C(=O)Nc2cccc(C(F)(F)F)c2)C(c2ccc(O)cc2)C(C(=O)Nc2cccc(C(F)(F)F)c2)=C(C)N1 = 17.7 µM (inactive)
• O=C(O)c1cc(/N=N/c2ccc([N+](=O)[O-])cc2)ccc1O = 24 µM (inactive)
• Cc1ccc(Cl)c2c(=O)c3ccc([N+](=O)[O-])cc3sc12 = > 100 µM (inactive)
• COc1ccc2c(=O)cc(-c3ccncc3)oc2c1OC = 33 µM (inactive)
• Clc1ccc(OCc2nnc3sc(SSc4nn5c(COc6ccc(Cl)cc6)nnc5s4)nn23)cc1 = > 100 µM (inactive)

The observed GI50 for COc1cc(C[C@H]2C(=O)OC[C@@H]2Cc2ccc(OC)c(OC)c2)cc(OC)c1 when tested with UACC-257 stands at 51.5 µM (inactive)

The observed GI50 for COC(=O)/C=c1\s/c(=C\C(=O)OC)c2ccccc12 when tested with UACC-257 stands at > 100 µM (inactive)

The observed GI50 for COc1ccc(/C=c2/s/c(=C(\C#N)c3nc4ccccc4[nH]3)n(-c3ccccc3)c2=O)cc1 when tested with UACC-257 stands at > 100 µM (inactive)

The observed GI50 for CC(C)(C)OC(=O)NCC(c1c[nH]c2ccc(Br)cc12)c1c[nH]c2ccc(Br)cc12 when tested with UACC-257 stands at 13 µM (inactive)

The observed GI50 for O=C(O)CNC(=O)c1cccc2c(=O)c3ccccc3[nH]c12 when tested with UACC-257 stands at > 100 µM (inactive)

###

- Tested on: ACHN
- method.summary: NCI tumour cell line growth inhibition, 48 h
Activity calls are given as the source filed them. Rule as the data show it: active = GI50 up to about 1.1 µM and inactive = higher.
readout.name: GI50

Answered cases to consult:
* Cc1ccc(S(=O)(=O)NC2(C=O)CCCC3CCCCC32)cc1 (centres undefined) | > 100 µM (inactive)
* CN(C)CCC1(C2=CCCC2)CC/C(=C\c2ccccc2)C1=O (centres undefined) | 15.3 µM (inactive)
* CC(C)=CCC/C(C)=C/CC/C(C)=C/CC(CO)N(C)CC/C=C(\C)CCC=C(C)C (centres undefined) | 11.6 µM (inactive)
* C=C1C(=O)OC2C1CCC(=C)C1CC(O)C(=C)C12 (centres undefined) | 3.18 µM (inactive)
* CCC1CCC2c3c([nH]c4ccccc34)C3C(=O)N(c4ccc(OC)cc4)C(=O)C3C2C1 (centres undefined) | 39.8 µM (inactive)

The observed GI50 for c1ccc2[nH]c3[nH]c4[nH]c5ccccc5[nH]c4[nH]c3[nH]c2c1 when tested with ACHN stands at > 100 µM (inactive)

The observed GI50 for CCC1(CC)C(=O)N(C(=O)c2ccc(Cl)cc2)N(C(=O)c2ccccc2Cl)C1=O when tested with ACHN stands at 36.1 µM (inactive)

The observed GI50 for O=C(Nc1nc2ncn(CCO)c2c(=O)[nH]1)c1ccccc1 when tested with ACHN stands at > 100 µM (inactive)

The observed GI50 for C[C@]12CC[C@H](O)C[C@H]1CC[C@@H]1[C@@H]2CC[C@]2(C)[C@@H](C3=CC(=O)OC3)CC[C@]12O [DIGITOXIGENIN] when tested with ACHN stands at < 0.0125 µM (active)
